inhibition values by entry
Target: Cyclin-dependent kinase 2 (Homo sapiens);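 also: mean inhibition measured against the CDK2/cyclin E complex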
Details: at 1 µM
Measure: inhibition

COc1ccc(-c2cc(-c3c[nH]nc3-c3ccccn3)ccn2)cc1    5.82%
COc1cc(Nc2nccc(Nc3ccc4c(C)n[nH]c4c3)n2)cc(OC)c1OC    6.07%
CCn1c(-c2nonc2N)nc2c(C#CC(C)(C)O)ncc(OC3CCNCC3)c21    3.09%
COc1ccc2c(-c3ccnc(Nc4cccc(OC(F)(F)F)c4)n3)cnn2n1    57%
CNC(=O)c1cc(-c2ccc(F)cc2)cc(-c2ccc(S(=O)(=O)N3CCCC3)cc2)c1N    3.39%

* * *

Here, each record is paired with measured inhibition data.
Biological target: Serine/threonine-protein kinase D1 (Homo sapiens);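 also: values given as mean inhibition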
Sequence (whole entry): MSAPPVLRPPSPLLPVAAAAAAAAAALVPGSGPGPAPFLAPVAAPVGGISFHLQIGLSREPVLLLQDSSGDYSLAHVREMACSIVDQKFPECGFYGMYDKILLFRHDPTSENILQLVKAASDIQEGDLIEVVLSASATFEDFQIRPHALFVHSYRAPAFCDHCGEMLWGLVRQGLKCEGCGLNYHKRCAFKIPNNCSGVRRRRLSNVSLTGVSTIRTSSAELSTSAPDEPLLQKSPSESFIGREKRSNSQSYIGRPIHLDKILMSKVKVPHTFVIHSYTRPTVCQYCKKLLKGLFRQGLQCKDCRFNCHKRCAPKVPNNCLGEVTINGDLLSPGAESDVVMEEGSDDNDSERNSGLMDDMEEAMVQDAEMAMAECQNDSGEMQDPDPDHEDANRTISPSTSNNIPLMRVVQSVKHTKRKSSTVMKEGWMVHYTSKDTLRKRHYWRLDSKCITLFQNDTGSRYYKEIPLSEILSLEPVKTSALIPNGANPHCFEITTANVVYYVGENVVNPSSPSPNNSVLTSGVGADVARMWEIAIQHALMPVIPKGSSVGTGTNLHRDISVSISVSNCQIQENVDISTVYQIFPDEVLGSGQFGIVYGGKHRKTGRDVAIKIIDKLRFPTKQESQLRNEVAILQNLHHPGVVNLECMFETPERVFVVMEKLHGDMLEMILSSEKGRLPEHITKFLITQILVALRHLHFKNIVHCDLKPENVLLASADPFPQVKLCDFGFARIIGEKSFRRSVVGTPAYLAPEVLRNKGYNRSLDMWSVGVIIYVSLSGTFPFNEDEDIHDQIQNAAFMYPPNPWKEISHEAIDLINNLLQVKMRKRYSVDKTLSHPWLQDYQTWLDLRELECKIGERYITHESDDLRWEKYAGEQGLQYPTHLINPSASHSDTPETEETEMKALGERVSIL
Details: at 0.1 µM
Measure: inhibition (%)

COc1ccc2[nH]c3c4[nH]c5ccc(OC)cc5c4c4c(c3c2c1)C(=O)NC4=O    5.02
[O-][S+]1CCN(Cc2ccc(-c3ccc4ncnc(Nc5ccc(OCc6cccc(F)c6)c(Cl)c5)c4c3)o2)CC1    5.58
CCNC(=O)O[C@H]1CN[C@H](C#Cc2cc3ncnc(Nc4ccc(OCc5cccc(F)c5)c(Cl)c4)c3s2)C1    2.66
CC(=O)NCc1cccc(C#Cc2cncnc2Nc2ccc(OCc3cccc(F)c3)c(Cl)c2)c1    3.28
CCn1c(-c2nonc2N)nc2c(C#CC(C)(C)O)nc(OC[C@H](N)c3ccccc3)cc21    5.85
COc1ccc(-c2cc(-c3c[nH]nc3-c3ccccn3)ccn2)cc1    8.14
Fc1ccc(-c2nn3ncccc3c2-c2ccnc(Nc3ccc4c(c3)OCCO4)n2)cc1    4.89
CCN1CCC(CC(=O)Nc2n[nH]c3nnc(-c4cccc(F)c4F)cc23)CC1    0.72
O=C(Nc1n[nH]c2cc(-c3ccc(F)cc3)ccc12)C1CC1    3.02
COc1cc(N2CCN(C(C)C)CC2)ccc1Nc1nc(Nc2ccc(F)cc2C(N)=O)c2cc[nH]c2n1    61.7
Clc1ccc(-c2nn3ncccc3c2-c2ccnc(Nc3ccccc3)n2)cc1    1.65
COc1cc2c(cc1Nc1nc(Nc3ccsc3C(N)=O)c3cc[nH]c3n1)N(C(=O)CN(C)C)CCC2(C)C    11.2
O=S(=O)(CCNCc1ccc(-c2ccc3ncnc(Nc4ccc(OCc5cccc(F)c5)c(Cl)c4)c3c2)o1)c1ccccc1    5.17
N#Cc1c(NC(=O)c2ccc(F)cc2)sc2c1CCCC2    1.57
CNC(=O)c1cncc(/C=C/c2ccccc2Cl)c1    1.19
COc1cc2ncn(-c3cc(OCc4ccccc4C(F)(F)F)c(C(=O)N(C)C)s3)c2cc1OC    0.6
NS(=O)(=O)c1ccc(Nc2ncc(-c3ccccc3)o2)cc1    3.47
CCn1cc(-c2ccnc3[nH]ccc23)c(-c2cccc(NC(=O)Nc3ccc(OCc4ccccc4)cc3)c2)n1    2.3
COc1cccc(-c2c[nH]c3c(N/N=C/c4ccncc4)ncnc23)c1    1.3

Values compiled from ChEMBL document CHEMBL1961873.
